Data provenance: patent US20230235054A1

# tested_on: T1, huNectin4-His (human, UniProt Q96NY8 32-349)
# T1 construct: Immobilized on the SPR chip; also called humanNectin4; human Nectin4; not shown: His tag
# T1 sequence (looked up): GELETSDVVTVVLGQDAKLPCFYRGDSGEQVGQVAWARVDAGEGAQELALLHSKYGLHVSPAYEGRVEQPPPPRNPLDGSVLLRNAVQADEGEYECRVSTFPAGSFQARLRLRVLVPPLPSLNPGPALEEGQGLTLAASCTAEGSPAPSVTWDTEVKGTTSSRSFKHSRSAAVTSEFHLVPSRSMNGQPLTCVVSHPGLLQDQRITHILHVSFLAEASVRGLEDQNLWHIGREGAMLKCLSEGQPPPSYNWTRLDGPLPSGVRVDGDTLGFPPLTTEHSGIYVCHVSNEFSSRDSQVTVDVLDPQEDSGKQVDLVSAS
# assay_remarks: SPR, huNectin4-His immobilized, pH 6.5
Measured Kd accompanies every entry in the list below.
Kindly answer with a numeric value in pM, unit omitted.

Exam item: Reported Kd, binder BAP-143-wildtype (antibody, V domains shown, 150 kDa used in SPR; also called BAP143-00-00; benchmark (BM)) VH: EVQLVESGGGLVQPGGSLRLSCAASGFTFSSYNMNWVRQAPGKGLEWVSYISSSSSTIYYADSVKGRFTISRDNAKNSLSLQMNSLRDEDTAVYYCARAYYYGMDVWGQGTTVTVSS VL: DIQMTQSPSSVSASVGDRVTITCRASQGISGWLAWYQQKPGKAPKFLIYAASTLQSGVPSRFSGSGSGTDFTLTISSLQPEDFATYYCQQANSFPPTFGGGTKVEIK : ____
Marked response: 685

Exam item: // query Kd value for entry BAP-143-00-04 (antibody, V domains shown, Used as a conjugate with a linker payload (CAB ADC)) VH: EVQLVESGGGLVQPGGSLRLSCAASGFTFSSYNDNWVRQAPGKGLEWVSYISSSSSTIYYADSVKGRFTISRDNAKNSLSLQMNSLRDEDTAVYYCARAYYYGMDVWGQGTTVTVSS VL: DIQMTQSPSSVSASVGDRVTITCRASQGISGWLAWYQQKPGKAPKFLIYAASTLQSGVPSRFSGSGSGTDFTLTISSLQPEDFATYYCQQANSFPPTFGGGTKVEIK
Marked response: 1500

Exam item: Kd lookup needed for BAP-143-00-06 (antibody, V domains shown, Used as a conjugate with a linker payload (CAB ADC)) VH: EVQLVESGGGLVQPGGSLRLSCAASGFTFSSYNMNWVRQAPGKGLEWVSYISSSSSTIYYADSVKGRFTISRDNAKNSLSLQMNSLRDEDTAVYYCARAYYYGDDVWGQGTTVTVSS VL: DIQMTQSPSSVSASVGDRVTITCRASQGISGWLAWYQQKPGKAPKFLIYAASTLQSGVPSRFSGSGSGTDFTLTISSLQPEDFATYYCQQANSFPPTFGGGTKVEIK , thanks.
Marked response: 220
